# Procedure details: yeast display, Sf9 membrane polyspecificity reagent, FACS + sequencing; frameworks hold sequencing errors
Observed property: polyreactivity (PSR sort gate)

Examples with answers:
QVQLVESGGGLVQAGGSLRLSCADSGSIFTYTMGWYRQAPGKERELVAVISRSGGRTYYADSVKGRFTISRDNAKNTVYLQMNSLKPEDTAVYYCATDGHNGYYGRYDYWGQGTQVTVSS : high polyreactivity
QVQLVESGGGLVQAGGSLRLSCAASGRIFPYYTMGWYRQAPGKERELVAAISRRGSSTYYADSVKGRFTISRDNAQNTVYLQMNSLKPEDTAVYNCAADRGGYTRTGEYDYWGQGTQVTVSS : high polyreactivity
QVQLVESGGGLVQAGGSLSLSCAASGFIFNHYAMRWYRQAPGTETEFVAAISLSGGSTYYAVSVKGRFTISRDNAKKTVYLQRNSLKPEDTAVYYCAASYNGLWHGDYDYWGHGTQVTVSS : low polyreactivity
QVQLVESGGGLVQAGGSLRLSCAASGSTFGGYVMGWYRQAPGKERELVAAISGNGASTTYADSVKGRFTISRDNAKNTVYLQMNSLKPEDTAVYYCDALYRKAHSDYDYWGQGTQVTVSS : low polyreactivity
QVQLVESGGGLVQAGGSLRLSCAASGSIFYWYAMGWYRQAPGKERELVAGITGRGGSTYYADSVKGRFTISRDNAKNTVYLQMNSLKPEDTAVYYCAARYTRWRYNYKDYDYWGQGTQVTVSS : high polyreactivity
QVQLVESGGGLVQAGGSLRLSCAASGITFYVYAMGWYIPAPGKERELVAAINYDSGSTYYADSVKGRFTISRDNAKNTVYLQMNSLKPEDTAVYYCATDGVNPFYAYDYWGQGTQVTVSS : low polyreactivity
QVQLVESGGGLVQAGGSLRLSCAASGSTFTYNAMGWYRQAPGKVRELVASISSGTTTYYADSVKGRFTISRDNAKNTVYLQMNSLTPEDTAVYYCAVDSWSRVQGWLAHNYDYWGQGTQVTVSS : low polyreactivity
QVQLVESGGGLVQAGGSLRLSCAASGTIFWIYAMGWYRQAPGKERELVATITRRGGSTYYADSVKGRFTISRDNATNTVYLQMNSLKPEDTAVYFCATEPGYTYLTSYKYDYWGQGTQVTVSS : low polyreactivity
QLQLVESGGGLVQAGGSLRLSCAPSGLTFGRYAMGGYRHAPGKERELVAAITARVGRTYYADSVKGRFTISRDNEKNTVYLQMNSLKPEDTAVYYCAAGPSYFWYSHEKYDYWGQGTQVTVSS : high polyreactivity
QVQLVESGGGLVQAGGSLRLSCAASGSIIFGYGMGWYRQAPGKERELVATITTSGGTYYADSVKGRFTISRDNAKNSVYLQMNSLKPEDTAVYYCAATAAALDGNTIMYYWGQGTQVTVSS : low polyreactivity

Consider the additional sequence presented here.
**Q:** Name the recorded polyreactivity (PSR sort gate) of the sequence listed here: QVQHVESGRGLVQAGGSLRLSCAASGLTFSRYAMGWYRQAPGKERELVAAITRSGGSTYYADSVKGRFTISRDNEKNTVYLQMKSLKPEDSAVYYCARTFTDRYGHWYGYWGQGTQVTVSS
**A:** high polyreactivity
